system: Hepatotoxicity; test: FDA HLAED, serum glutamic pyruvic transaminase (SGPT) increase; conditions: human
quantity.kind: SGPT Increase - Number of Reports

stdin: // SGPT Increase - Number of Reports lookup, key: COc1cc2c(cc1OC)[C@@H](Cc1cc(OC)c(OC)c(OC)c1)[N+](C)(CCCOC(=O)CC/C=C/CCC(=O)OCCC[N+]1(C)CCc3cc(OC)c(OC)cc3[C@H]1Cc1cc(OC)c(OC)c(OC)c1)CC2.[Cl-].[Cl-] (some centres undefined) [MIVACURIUM CHLORIDE]
stdout: < 4

stdin: Consider the compound O=C1CN(/N=C/c2ccc([N+](=O)[O-])o2)C(=O)N1 [NITROFURANTOIN] and give its measured SGPT Increase - Number of Reports.
stdout: >= 4

stdin: Given the entry C[C@@H]1CN([C@H]2CC[C@](C#N)(c3ccc(F)cc3)CC2)CC[C@]1(C(=O)O)c1ccccc1 [LEVOCABASTINE] , report its measured SGPT Increase - Number of Reports.
stdout: < 4

stdin: Bench note: what SGPT Increase - Number of Reports did O=S(=O)([O-])CCS.[Na+] [MESNA] show?
stdout: < 4
